- EXPERIMENTAL PARAMETERS: in chloroform, 323.15 K
PROPERTY NAME: solubility (mole fraction)

SMILES TEXT | ASSAY VALUE
C[C@@H]1CC[C@H]2[C@@H](C)C(=O)O[C@@H]3O[C@@]4(C)CC[C@@H]1[C@]32OO4 | 0.287

###

- EXPERIMENTAL PARAMETERS: in toluene, 283.15 K

SMILES TEXT | solubility (mole fraction)
C[C@@H]1CC[C@H]2[C@@H](C)C(=O)O[C@@H]3O[C@@]4(C)CC[C@@H]1[C@]32OO4 | 0.0375

###

- EXPERIMENTAL PARAMETERS: in toluene, 298.15 K
PROPERTY NAME: solubility (mole fraction)

SMILES TEXT | ASSAY VALUE
C[C@@H]1CC[C@H]2[C@@H](C)C(=O)O[C@@H]3O[C@@]4(C)CC[C@@H]1[C@]32OO4 | 0.0603
